- Tested on: SF-268
- test: NCI tumour cell line growth inhibition, 48 h
Active and inactive are the calls of the source. Cut-off read from the data, not from the text of the source: active = GI50 up to about 1.1 µM and inactive = higher.
Assign a class; possible classes are active, inactive

Record excerpt, results attached:
{"columns": ["molecule", "class.assignment"],
 "data": [
  ["Cc1ccc(NC(=O)C(=O)Cc2nc3ccccc3o2)c(C)c1", "inactive"],
  ["O=c1[nH]cc(-c2c[nH]c3ccccc23)nc1-c1c[nH]c2ccccc12", "inactive"]
]}

Which result was noted for this molecule in the test: CCCCCC(=O)NC(=S)Nc1nnn[nH]1 inactive

###

GI50 values by entry
- System: HOP-92
- test: NCI tumour cell line growth inhibition, 48 h
Calls of active or inactive are those of the source. Cut-off read from the data, not from the text of the source: active = GI50 up to about 1.1 µM and inactive = higher.

Field: example entries. Status: answers known.
{"columns": ["compound", "endpoint.label", "readout.value"],
 "data": [
  ["COc1cc2ccnc3c(=C(SC)SC)c(=O)c(c1OC)c23", "GI50", "5.64 µM (inactive)"],
  ["CCCCCCCCCCCCP(=O)(O)OCC(N)C(=O)O (stereo not given)", "GI50", "25.4 µM (inactive)"]
]}

Kindly state the measured GI50 obtained for COc1cc([C@H]2CC(=O)C[C@H](c3cc(OC)c(OC)c(OC)c3)C23C(=O)c2ccccc2C3=O)cc(OC)c1OC with HOP-92. 33.6 µM (inactive)

Look up GI50 with HOP-92 for this compound: CC(C)(C)OC(=O)NC(CSCc1ccc(C(=O)c2ccccc2)cc1)C(=O)N1CCN(CCCCN2c3ccccc3Sc3cc(N=[N+]=[N-])ccc32)CC1 (stereo not given) > 100 µM (inactive)

Kindly state the measured GI50 obtained for COc1cc2c(cc1OC)C1[C@@H](c3ccccc3)OCN1CC2 (stereo not given in full) with HOP-92. 83.4 µM (inactive)

Which GI50 is reported with HOP-92 for this entry: Cc1ccc2c(c1)-c1nc(N)c(C#N)c(-c3ccccc3)c1CCS2(=O)=O ? 26.4 µM (inactive)
